- experimental-system: SIRT1 (Homo sapiens, UniProt Q96EB6)
- assay-remarks: Mass spectrometry based assay to identify modulators of SIRT1 activity (deacetylation of p53-based acetylated peptide)
- Format: biochemical
- study-conditions: SIRT1 activation; 10 nM SIRT1, 0.5 μM peptide substrate, 120 μM βNAD+, 25 minutes at 25° C.
endpoint: EC1.5 μM

> print(dat)
                            compound.string    measured.result
1  Cn1c(-c2ccccc2C(F)F)nc2c(C(=O)Nc3ccccn3)cccc2c1=O  B (EC1.5 1-25 μM)
2  Cn1c(-c2cccc(C(F)(F)F)c2)nc2c(NC(=O)c3cccc(CN4CCCC4)c3)cccc2c1=O  B (EC1.5 1-25 μM)
3  O=C(Nc1cccc2c(=O)cc(-c3cccc(C(F)(F)F)c3)[nH]c12)c1ccns1   A (EC1.5<1.0 μM)
4  O=C(Nc1nccs1)c1cccc2c(=O)cc(-c3cccc(Cl)c3)[nH]c12   A (EC1.5<1.0 μM)
5  O=C(NC1CCOCC1)c1cccc2c(=O)cc(-c3cccc(C(F)(F)F)c3)[nH]c12  B (EC1.5 1-25 μM)
6  Cn1cncc1C(=O)Nc1cccc2c(=O)n(C)c(-c3cccc(C(F)(F)F)c3)nc12  B (EC1.5 1-25 μM)
7  Cn1c(-c2cccc(C(F)(F)F)c2)nc2c(C(=O)Nc3ccnc(CN4CCOCC4)n3)cccc2c1=O  B (EC1.5 1-25 μM)
8  O=C(Nc1cccc2c(=O)cc(-c3cccc(C(F)(F)F)c3)[nH]c12)c1cccc(F)n1   A (EC1.5<1.0 μM)

* * *

- experimental-system: SIRT1 (Homo sapiens, UniProt Q96EB6)
- assay-remarks: Mass spectrometry based assay to identify modulators of SIRT1 activity (deacetylation of p53-based acetylated peptide)
- Format: biochemical
- study-conditions: SIRT1 activation; 10 nM SIRT1, 0.5 μM peptide substrate, 120 μM βNAD+, 25 minutes at 25° C.
endpoint: EC1.5 μM

> print(dat)
                                   molecule                   experimental.system   measured.result
1  O=C(Nc1nccs1)c1cccc2c(=O)cc(-c3cccc(OC(F)F)c3)[nH]c12 [Compound 428]  SIRT1 (Homo sapiens, UniProt Q96EB6)  A (EC1.5<1.0 μM)
2  Cn1c(-c2cccc(C(F)(F)F)c2)nc2c(C(=O)Nc3cccc(OCC(O)CO)c3)cccc2c1=O (centres unmarked) [Compound 360]  SIRT1 (Homo sapiens, UniProt Q96EB6)  A (EC1.5<1.0 μM)
3  Cn1c(-c2ccncc2)nc2c(C(=O)Nc3ccccn3)cccc2c1=O [Compound 223]  SIRT1 (Homo sapiens, UniProt Q96EB6)   C (EC1.5>25 μM)
4  Cn1c(-c2cccc(C(F)(F)F)c2)nc2c(NC(=O)c3cncnc3)cccc2c1=O [Compound 241]  SIRT1 (Homo sapiens, UniProt Q96EB6)   C (EC1.5>25 μM)
5  CCCn1c(-c2cccc(C(F)(F)F)c2)nc2c(NC(=O)c3cnccn3)cccc2c1=O [Compound 233]  SIRT1 (Homo sapiens, UniProt Q96EB6)  A (EC1.5<1.0 μM)

* * *

- experimental-system: UniProt:Q96EB6
- Sequence (Q96EB6 1-747): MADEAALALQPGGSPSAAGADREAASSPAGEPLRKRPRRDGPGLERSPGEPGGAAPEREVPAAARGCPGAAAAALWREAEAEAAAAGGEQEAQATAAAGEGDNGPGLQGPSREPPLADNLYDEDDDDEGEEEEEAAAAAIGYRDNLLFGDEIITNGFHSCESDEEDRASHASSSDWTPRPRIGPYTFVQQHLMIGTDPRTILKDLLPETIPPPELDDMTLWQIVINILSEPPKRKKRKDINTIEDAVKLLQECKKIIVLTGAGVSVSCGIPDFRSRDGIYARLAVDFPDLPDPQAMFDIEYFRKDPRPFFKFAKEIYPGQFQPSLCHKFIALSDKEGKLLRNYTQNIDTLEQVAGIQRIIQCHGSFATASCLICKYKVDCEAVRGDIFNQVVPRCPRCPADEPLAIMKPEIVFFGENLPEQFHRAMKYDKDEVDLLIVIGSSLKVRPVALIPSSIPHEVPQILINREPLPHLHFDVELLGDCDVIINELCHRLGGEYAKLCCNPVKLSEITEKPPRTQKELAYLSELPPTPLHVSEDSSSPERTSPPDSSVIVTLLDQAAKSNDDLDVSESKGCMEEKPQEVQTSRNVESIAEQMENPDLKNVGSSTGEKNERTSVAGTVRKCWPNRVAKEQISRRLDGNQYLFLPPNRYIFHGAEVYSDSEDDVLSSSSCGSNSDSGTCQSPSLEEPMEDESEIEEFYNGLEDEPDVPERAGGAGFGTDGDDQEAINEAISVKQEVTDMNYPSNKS
- assay-remarks: Mass spectrometry based assay to identify modulators of SIRT1 activity (deacetylation of p53-based acetylated peptide)
- Assay type: biochemical
- study-conditions: SIRT1 activation; 10 nM SIRT1, 0.5 μM peptide substrate, 120 μM βNAD+, 25 minutes at 25° C.
endpoint: EC1.5 μM

> print(dat)
                                    compound    measured.result
 1  Cn1c(-c2cccc(C(F)(F)F)c2)nc2c(NC(=O)c3cccnc3)cccc2c1=O [Compound 240]  B (EC1.5 1-25 μM)
 2  Cn1c(-c2ccncn2)nc2c(C(=O)Nc3ccccn3)cccc2c1=O [Compound 257]    C (EC1.5>25 μM)
 3  Cn1cc(-c2nc3c(C(=O)Nc4ccccn4)cccc3c(=O)n2C)cn1 [Compound 263]    C (EC1.5>25 μM)
 4  O=C(Nc1ccccn1)c1cccc2c(=O)[nH]c(-c3ccccc3C(F)(F)F)nc12 [Compound 321]  B (EC1.5 1-25 μM)
 5  Cn1c(-c2ccccc2OC(F)F)nc2c(C(=O)Nc3ccccn3)cccc2c1=O [Compound 327]  B (EC1.5 1-25 μM)
 6  Cn1c(-c2ccccc2OC(F)(F)F)nc2c(NC(=O)c3cnccn3)cccc2c1=O [Compound 274]   A (EC1.5<1.0 μM)
 7  O=C(Nc1cccc2c(=O)cc(-c3cccc(C(F)(F)F)c3)[nH]c12)c1cscn1 [Compound 405]   A (EC1.5<1.0 μM)
 8  O=C(Nc1cccc2c(=O)cc(-c3cccc(Cl)c3)[nH]c12)c1cscn1 [Compound 446]  B (EC1.5 1-25 μM)
 9  CN1CCCCC1C(=O)Nc1cccc2c(=O)n(C)c(-c3cccc(C(F)(F)F)c3)nc12 (stereo not drawn) [Compound 343]    C (EC1.5>25 μM)
10  Cn1c(C2CCCC2)nc2c(C(=O)Nc3ccccn3)cccc2c1=O [Compound 214]    C (EC1.5>25 μM)
11  Cc1ncsc1-c1nc2c(C(=O)Nc3ccccn3)cccc2c(=O)n1C [Compound 226]  B (EC1.5 1-25 μM)
12  Cc1ncoc1C(=O)Nc1cccc2c(=O)n(C)c(-c3cccc(C(F)(F)F)c3)nc12 [Compound 230]   A (EC1.5<1.0 μM)
